The reported numbers originate from patent US8889713B1.

# Test system: MDA-MB-231 estrogen receptor-negative breast cancer cell line
# measurement_description: […]-GLO luminescent cell viability assay, MDA-MB-231
# Type: cell-based
# conditions_used: Homo sapiens, MDA-MB-231, 72 h at 37° C., 5000 cells/well
measurement_type: IC50 (mg/L)

Can you share its IC50? I mean this molecule: CCc1ccc(C(=O)NN2CCc3c(cccc3OC)C2)cc1 10.5

Fill in: IC50 of O=C(NN1CCc2ccccc2C1)c1ccc(Br)cc1 is ___ 4.34

What value of IC50 has been recorded for this entry: O=C(NN1CCc2ccccc2C1)c1nc2ccccc2s1 13.1

Entry under review: CCc1ccc(C(=O)NN2CCc3ccc(O)cc3C2)cc1 . Reported IC50? 0.13

Need IC50, item CC(C)(C)c1ccc(C(=O)NN2CCc3ccc(O)cc3C2)cc1 4.7

Which IC50 is listed for CCc1ccc(C(=O)NN2CCc3ccccc3C2)cc1 ? 0.37

P = CCc1ccc(C(=O)NN2CCc3ccc(OC)cc3C2)cc1
Q = CCc1ccc(C(=O)NN2CCc3c(Br)ccc(Br)c3C2)cc1
R = CCCc1ccc(C(=O)NN2CCc3ccccc3C2)cc1
S = O=C(NN1CCc2ccccc2C1)c1ccc(C(F)(F)F)cc1
T = CCCCc1ccc(C(=O)NN2CCc3ccccc3C2)cc1
Sort the 5 molecules by IC50; largest first, smallest last. Answer by listing the labels in the order asked for. T, S, R, Q, P
(T: 7.03 mg/L, S: 4.85 mg/L, R: 3.26 mg/L, Q: 1.71 mg/L, P: 0.23 mg/L)
